target: MAGI2_6, Q86UL8; test: holdup assay; design: key: below the threshold = too weak to quantify, mostly under pKd 3.1 to 4; conditions: plain residues with an end cap or a label only (N-terminal biotin on a linker: ado-ado)
Sequence (Q86UL8 1141-1229): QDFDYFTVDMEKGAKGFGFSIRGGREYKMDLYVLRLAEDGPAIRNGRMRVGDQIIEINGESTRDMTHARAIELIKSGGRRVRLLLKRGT
measure: pKd

A selection of reference data follows.
In [3]: df
Out[3]:
                         binder                value
0      PYPTADHMLA [JUP, P14923]  below the threshold
1  DDASLPVSDV [PLEKHA1, Q9HB21]                 5.09
2  PSHPRLQTHV [KIRREL2, Q6UWL6]  below the threshold
3    AEASVACSLC [PTGIR, P43119]  below the threshold
4    RQKEVRESKC [SCN8A, Q9UQD0]  below the threshold
5  LKDDELKTKL [SLCO1A2, P46721]  below the threshold

get_value(item= IDESKKEWLI [CNTNAP2, Q9UHC6] , readout=pKd) returns below the threshold

get_value(item= ARESQKVSHV [FAM110B, Q8TC76] , readout=pKd) returns 4.43
